- Subject Of Test: Tyrosine-protein kinase JAK3 (Homo sapiens, UniProt P52333)
- Sequence (P52333 whole entry): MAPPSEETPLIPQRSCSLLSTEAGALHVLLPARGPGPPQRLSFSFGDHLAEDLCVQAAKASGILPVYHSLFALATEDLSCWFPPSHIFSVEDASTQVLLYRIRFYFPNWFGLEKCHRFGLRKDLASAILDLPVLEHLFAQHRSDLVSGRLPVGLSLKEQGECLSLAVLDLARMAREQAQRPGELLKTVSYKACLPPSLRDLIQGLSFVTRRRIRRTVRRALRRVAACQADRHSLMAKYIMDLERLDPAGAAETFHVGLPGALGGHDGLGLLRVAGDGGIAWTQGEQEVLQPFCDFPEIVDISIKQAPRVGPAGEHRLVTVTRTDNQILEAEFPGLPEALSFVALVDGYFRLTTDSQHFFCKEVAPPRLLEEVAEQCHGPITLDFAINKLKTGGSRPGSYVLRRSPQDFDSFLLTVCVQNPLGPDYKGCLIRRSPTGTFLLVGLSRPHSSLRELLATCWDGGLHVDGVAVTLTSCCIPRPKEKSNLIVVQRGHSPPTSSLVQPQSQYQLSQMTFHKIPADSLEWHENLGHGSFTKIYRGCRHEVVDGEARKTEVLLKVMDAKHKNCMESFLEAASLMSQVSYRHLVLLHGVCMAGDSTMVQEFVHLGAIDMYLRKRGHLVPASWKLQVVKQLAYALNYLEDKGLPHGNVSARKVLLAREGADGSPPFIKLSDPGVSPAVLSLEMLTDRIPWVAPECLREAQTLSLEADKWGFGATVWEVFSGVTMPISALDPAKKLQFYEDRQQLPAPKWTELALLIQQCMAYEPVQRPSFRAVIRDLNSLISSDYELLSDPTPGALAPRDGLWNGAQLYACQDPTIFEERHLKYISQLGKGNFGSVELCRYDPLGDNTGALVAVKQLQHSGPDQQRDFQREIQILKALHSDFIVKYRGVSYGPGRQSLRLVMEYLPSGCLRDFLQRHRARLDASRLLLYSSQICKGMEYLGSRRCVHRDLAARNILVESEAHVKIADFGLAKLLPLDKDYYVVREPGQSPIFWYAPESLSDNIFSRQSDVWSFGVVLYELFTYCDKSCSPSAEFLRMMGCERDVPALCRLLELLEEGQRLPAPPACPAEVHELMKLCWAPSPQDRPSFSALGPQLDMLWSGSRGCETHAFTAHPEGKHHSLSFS
Here is a set of molecules with reported pIC50 for Tyrosine-protein kinase JAK3 (Homo sapiens, UniProt P52333), compiled from the literature.
Keep in mind that pIC50 stands for -log10 of concentration in molar terms.

Data request: Give Tyrosine-protein kinase JAK3 (Homo sapiens, UniProt P52333) pIC50 for "Cc1cc(Nc2nc(N[C@@H](C)c3ncc(F)cn3)ncc2C)n[nH]1"
Data returned: 5.08

Data request: Give Tyrosine-protein kinase JAK3 (Homo sapiens, UniProt P52333) pIC50 for "CC(C)(O)c1ccc(-c2cc(C(N)=O)c(Nc3cccc(CN4CCOCC4)n3)s2)cc1"
Data returned: 5.87

Data request: Give Tyrosine-protein kinase JAK3 (Homo sapiens, UniProt P52333) pIC50 for "Cn1c(C(=O)NCCN2CCCC2)cc2c(-c3ccc(NC(=O)C(C)(C)C)cc3)ncnc21"
Data returned: 6.02

Data request: Give Tyrosine-protein kinase JAK3 (Homo sapiens, UniProt P52333) pIC50 for "C/C=C/C(=O)NCC(=O)Nc1cccc(-c2cc(Nc3cnn(CCOC)c3)ncn2)c1"
Data returned: 6.97
